# EXPERIMENTAL_DETAILS: Metabolic stability in pooled human liver microsomes assessed as parent compound remaining measured at 20 uM after 60 mins in presence of NADPH by UPLC analysis
# Type: ADME, Microsome
# CONDITION_DESCRIPTION: read-out: Stability
ASSAY_READOUT: remaining at 1 h, 20 µM

Reported remaining at 1 h, 20 µM, molecule COc1ccc2c3c([nH]c2c1)[C@H](CC(C)C)N1C(=O)[C@H](COC(C)(C)C)NC(=O)[C@@H]1C3 : ____
> 90%

====

# EXPERIMENTAL_DETAILS: Metabolic stability in mouse liver microsomes assessed as parent compound remaining measured at 20 uM after 60 mins in presence of NADPH by UPLC analysis
# Format: ADME, Microsome
# CONDITION_DESCRIPTION: read-out: Stability
ASSAY_READOUT: remaining at 1 h, 20 µM

Reported remaining at 1 h, 20 µM, molecule COc1ccc2c3c([nH]c2c1)[C@H](CC(C)C)N1C(=O)[C@H](COC(C)(C)C)NC(=O)[C@@H]1C3 : ____
> 90%

Data credit: ChEMBL document CHEMBL5338770
